- Procedure details: Oral bioavailability in C57BL/6 mouse at 2 mg/kg
- Assay type: ADME, organism-based
- Study conditions: in vivo
Metric name: bioavailability (%)
Numeric only. Scale: %

*Q* # input compound: COc1cc(F)c(C(C)C)cc1-c1ccc(C(F)(F)F)cc1CN1C(=O)O[C@H](c2cc(C(F)(F)F)cc(C(F)(F)F)c2)[C@@H]1C ; wanted: its bioavailability
*A* 15

* * *

- Target system: Cholesteryl ester transfer protein (Homo sapiens) (UniProt P11597)
- Sequence (P11597 whole entry): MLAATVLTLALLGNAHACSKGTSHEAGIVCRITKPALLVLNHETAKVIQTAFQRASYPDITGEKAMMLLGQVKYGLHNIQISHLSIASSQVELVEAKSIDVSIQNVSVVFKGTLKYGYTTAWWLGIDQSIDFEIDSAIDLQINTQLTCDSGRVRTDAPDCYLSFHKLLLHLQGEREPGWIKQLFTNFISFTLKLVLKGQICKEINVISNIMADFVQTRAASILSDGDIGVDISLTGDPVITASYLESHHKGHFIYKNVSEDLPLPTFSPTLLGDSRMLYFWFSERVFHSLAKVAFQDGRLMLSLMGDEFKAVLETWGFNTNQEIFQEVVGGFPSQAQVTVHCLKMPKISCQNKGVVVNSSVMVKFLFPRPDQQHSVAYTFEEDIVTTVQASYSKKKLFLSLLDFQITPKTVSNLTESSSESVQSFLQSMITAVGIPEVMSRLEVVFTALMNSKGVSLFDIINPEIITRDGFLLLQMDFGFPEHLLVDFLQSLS
- Procedure details: Inhibition of human recombinant CETP-mediated cholesteryl ester transfer activity at 100 uM after 1 hr by fluorescent cholesteryl esters transfer assay relative to control
Give inhibition for every item shown.
Numeric only. Scale: %

*Q* # input compound: COc1ccc(C(C)C)cc1-c1ccc(C(F)(F)F)cc1CN1C(=O)O[C@H](c2ccccc2)[C@@H]1C ; wanted: its inhibition
*A* 94

*Q* Further, for COc1cc(F)c(C(C)C)cc1-c1ccc(C(F)(F)F)cc1CN1C(=O)O[C@](C)(c2cc(C(F)(F)F)cc(C(F)(F)F)c2)[C@@H]1C ?
*A* 46

*Q* Further, for CC[C@@H]1[C@@H](c2cc(C(F)(F)F)cc(C(F)(F)F)c2)OC(=O)N1Cc1cc(C(F)(F)F)ccc1-c1cc(C(C)C)ccc1OC (racemic) ?
*A* 49

*Q* Further, for COc1ccc(C(C)C)cc1-c1ccc(C(F)(F)F)cc1CN1C(=O)O[C@@H](c2ccccc2)[C@H]1C ?
*A* 90

// data source = ChEMBL document CHEMBL1799941
